# target-under-test: PD-1 (UniProt Q15116 25-167, limits assumed)
# Sequence (Q15116 25-167 limits assumed): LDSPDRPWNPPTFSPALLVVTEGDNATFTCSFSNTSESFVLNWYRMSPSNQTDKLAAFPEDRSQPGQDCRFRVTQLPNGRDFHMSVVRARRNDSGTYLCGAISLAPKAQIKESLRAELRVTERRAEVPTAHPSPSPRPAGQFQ
# protocol: ELISA; S9 on the Cys
Quick reference: binding activity, % of wild type of the listed items.
Give the value, in units of %, as a plain number.

[
  {
    "binder": "anti-PD-1 antibody 2 HC Ala40Cys (antibody, human IgG4 S228P, kappa, V domains shown, arm on Cys40 as named in each row) VH: QVQLVESGGGVVQPGRSLRLDCKASGITFSNSGMHWVRQCPGKGLEWVAVIWYDGSKRYYADSVKGRFTISRDNSKNTLFLQMNSLRAEDTAVYYCATNDDYWGQGTLVTVSS VL: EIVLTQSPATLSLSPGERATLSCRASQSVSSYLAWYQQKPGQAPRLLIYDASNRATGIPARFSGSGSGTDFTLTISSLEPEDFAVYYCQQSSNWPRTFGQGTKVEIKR",
    "unit-abbreviation": "%",
    "binding activity, % of wild type": 50.3
  },
  {
    "binder": "anti-PD-1 antibody 2 HC Ala24Cys (antibody, human IgG4 S228P, kappa, V domains shown, arm on Cys24 as named in each row) VH: QVQLVESGGGVVQPGRSLRLDCKCSGITFSNSGMHWVRQAPGKGLEWVAVIWYDGSKRYYADSVKGRFTISRDNSKNTLFLQMNSLRAEDTAVYYCATNDDYWGQGTLVTVSS VL: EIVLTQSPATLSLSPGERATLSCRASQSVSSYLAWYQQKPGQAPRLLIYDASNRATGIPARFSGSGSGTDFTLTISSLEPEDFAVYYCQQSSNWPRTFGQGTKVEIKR",
    "unit-abbreviation": "%",
    "binding activity, % of wild type": 45.6
  }
]

Read the next record carefully.
Exam item: # input binder: anti-PD-1 antibody 2 HC Ser17Cys (antibody, human IgG4 S228P, kappa, V domains shown, arm on Cys17 as named in each row) VH: QVQLVESGGGVVQPGRCLRLDCKASGITFSNSGMHWVRQAPGKGLEWVAVIWYDGSKRYYADSVKGRFTISRDNSKNTLFLQMNSLRAEDTAVYYCATNDDYWGQGTLVTVSS VL: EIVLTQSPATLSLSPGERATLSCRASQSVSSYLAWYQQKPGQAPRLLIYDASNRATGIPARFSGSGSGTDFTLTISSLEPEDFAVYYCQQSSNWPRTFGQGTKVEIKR ; wanted: its binding activity, % of wild type
Marked response: 75.3
